Biological target: human ether-à-go-go-related gene (hERG) potassium channel (human);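 also: peak tail current of the secondary pulse compared with the same well before compound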
Assay: primary screen, population patch clamp on CHO cells stably expressing hERG; higher = less effect of the substance
The campaign covered roughly 310,000 compounds. About 14,000 (4.5%) showed an effect of 50% or more. Effects have a minus sign here. What follows is part of a selection rich in strong results, with near analogues and random picks from the rest.
Reported hERG current change (%, negative = inhibition) at 10uM values are given for each entry in this list.
API: value field is a number in %; no unit string.

[
  {
    "COMPOUND": "O=C(NCCO)/C(=C\\c1cccs1)NC(=O)c1cccs1",
    "VALUE_OBSERVED": 18.7
  }
]

Form field: hERG current change (%, negative = inhibition) at 10uM recorded for O=C(NCCCn1ccnc1)/C(=C\c1cccs1)NC(=O)c1cccs1 with human ether-à-go-go-related gene (hERG) potassium channel (human) (enter value)
-62

Lookup Cc1ccc(C(=O)N/C(=C\c2cccs2)C(=O)NCCc2ccccn2)cc1C
-1.92

Lookup Cc1ccc(C(=O)N/C(=C\c2cn(S(=O)(=O)N(C)C)c3ccccc23)C(=O)NCCCn2ccnc2)cc1
-28.6

Lookup Cc1ccc(C(=O)N/C(=C\c2cn(C)c3ccccc23)C(=O)NCCCn2ccnc2)cc1
-7.74

Lookup O=C(NCc1ccco1)/C(=C\c1cccs1)NC(=O)c1cccs1
6.26

Lookup Cc1ccc(C(=O)N/C(=C/c2cccs2)C(=O)NCCCn2ccnc2)cc1
-71.9

Lookup O=C(NCc1ccccn1)C1CC(c2ccccc2Cl)=NO1 (stereo not drawn)
14.1

Lookup NS(=O)(=O)c1ccc(Nc2ccc3nonc3c2[N+](=O)[O-])cc1
9.07

====

Target: human ether-à-go-go-related gene (hERG) potassium channel (human, UniProt Q12809);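 also: peak tail current of the secondary pulse compared with the same well before compound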
Sequence (Q12809 whole entry, looked up): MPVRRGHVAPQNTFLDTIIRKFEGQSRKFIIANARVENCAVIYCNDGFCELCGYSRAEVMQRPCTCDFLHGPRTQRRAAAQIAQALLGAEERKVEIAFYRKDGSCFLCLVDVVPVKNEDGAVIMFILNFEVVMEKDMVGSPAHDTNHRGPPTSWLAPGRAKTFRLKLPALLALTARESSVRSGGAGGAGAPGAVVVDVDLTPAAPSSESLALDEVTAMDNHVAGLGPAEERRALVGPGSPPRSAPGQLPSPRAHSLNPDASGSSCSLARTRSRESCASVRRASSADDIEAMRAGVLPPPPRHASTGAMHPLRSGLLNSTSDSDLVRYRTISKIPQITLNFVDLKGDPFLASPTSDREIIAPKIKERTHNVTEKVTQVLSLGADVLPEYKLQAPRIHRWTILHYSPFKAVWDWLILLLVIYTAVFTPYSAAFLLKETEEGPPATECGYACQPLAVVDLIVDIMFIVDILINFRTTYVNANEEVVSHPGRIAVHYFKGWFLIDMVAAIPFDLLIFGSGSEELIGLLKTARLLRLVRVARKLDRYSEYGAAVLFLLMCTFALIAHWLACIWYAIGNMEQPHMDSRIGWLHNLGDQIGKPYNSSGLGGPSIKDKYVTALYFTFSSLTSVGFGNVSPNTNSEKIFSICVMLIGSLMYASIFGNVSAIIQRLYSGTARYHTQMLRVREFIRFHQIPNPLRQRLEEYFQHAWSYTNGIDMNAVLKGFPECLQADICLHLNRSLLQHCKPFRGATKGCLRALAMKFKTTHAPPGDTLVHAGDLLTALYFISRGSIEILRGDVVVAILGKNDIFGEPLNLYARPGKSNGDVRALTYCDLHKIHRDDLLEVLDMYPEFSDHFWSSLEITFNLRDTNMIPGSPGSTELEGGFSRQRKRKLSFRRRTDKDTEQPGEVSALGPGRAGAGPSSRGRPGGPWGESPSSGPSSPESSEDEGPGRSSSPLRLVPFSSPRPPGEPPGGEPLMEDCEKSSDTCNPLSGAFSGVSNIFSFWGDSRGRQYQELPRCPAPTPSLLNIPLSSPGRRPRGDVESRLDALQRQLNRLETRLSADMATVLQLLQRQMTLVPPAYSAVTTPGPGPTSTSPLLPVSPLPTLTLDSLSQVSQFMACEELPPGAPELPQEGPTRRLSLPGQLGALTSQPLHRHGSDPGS
Test: primary screen, population patch clamp on CHO cells stably expressing hERG; higher = less effect of the substance
Method: Briefly, Chinese hamster ovary (CHO) cells stably expressing the hERG channel were dislodged from tissue culture flasks and dispensed into PPC plates. […] During the recording, background leak currents were estimated by a 100 ms step to -80 mV from an initial holding potential of -70 mV and subtracted from the subsequent current measurement. The campaign was conducted in two phases using slight differences in recording protocol. […]
Hit rate of the full screen: of about 310,000 compounds, about 14,000 (4.5%) showed an effect of 50% or more. Effects have a minus sign here. The sample as a whole holds a higher share of strong results than the screen did.
EXPERIMENTAL_READOUT: hERG current change (%, negative = inhibition) at 10uM
Give the number first and the unit second.

[
  {
    "COMPOUND": "Cl.c1ccc(C(OCCN2CCNCC2)c2ccccc2)cc1",
    "TEST_TARGET": "human ether-à-go-go-related gene (hERG) potassium channel (human, UniProt Q12809)",
    "VALUE_OBSERVED": "-11.9%"
  },
  {
    "COMPOUND": "O=C(Nc1ccnn1C1CCN(C(=O)Cc2cccc(Cl)c2)CC1)C1CC1",
    "TEST_TARGET": "human ether-à-go-go-related gene (hERG) potassium channel (human, UniProt Q12809)",
    "VALUE_OBSERVED": "-7.34%"
  },
  {
    "COMPOUND": "COc1ccc(F)c(CN2CCC(n3nccc3NC(=O)C3CCOC3)CC2)c1 (stereo not shown)",
    "TEST_TARGET": "human ether-à-go-go-related gene (hERG) potassium channel (human, UniProt Q12809)",
    "VALUE_OBSERVED": "5.47%"
  },
  {
    "COMPOUND": "O=C(Nc1ccnn1C1CCN(Cc2cc(Cl)ccc2O)CC1)C1CC1",
    "TEST_TARGET": "human ether-à-go-go-related gene (hERG) potassium channel (human, UniProt Q12809)",
    "VALUE_OBSERVED": "-55%"
  },
  {
    "COMPOUND": "Cc1cnc(C(=O)OCC(=O)N(C)CC(=O)Nc2ccccc2Cl)cn1",
    "TEST_TARGET": "human ether-à-go-go-related gene (hERG) potassium channel (human, UniProt Q12809)",
    "VALUE_OBSERVED": "-2.14%"
  },
  {
    "COMPOUND": "Cl.c1ccc(CCCN2CCN(CCOC(c3ccccc3)c3ccccc3)CC2)cc1",
    "TEST_TARGET": "human ether-à-go-go-related gene (hERG) potassium channel (human, UniProt Q12809)",
    "VALUE_OBSERVED": "-71.8%"
  }
]

Data request, read-out hERG current change (%, negative = inhibition) at 10uM, for CCC(C(=O)N1CCN(c2ncccn2)CC1)c1ccccc1 (stereo not shown)
-0.742%

Lookup COc1ccc(CN2CCC(n3nccc3NC(=O)C3CCCC3)CC2)c(OC)c1
-73.2%

Lookup O=C(Nc1ccnn1C1CCN(Cc2cc(Cl)ccc2O)CC1)c1cccnc1
-9.31%

Lookup O=C(O)/C=C\C(=O)O.c1ccc(C(OCCN2CCN(c3ncccn3)CC2)c2ccccc2)cc1
-65.9%

Reference source: paper PMC4336329
